Each recorded value in this set is attributed to patent EP0072532A1.

- assay-summary: in vivo
- condition-notes: sheep, quotient of Dosis tolerata maxima and applied dose, applied dose 7,5 mg/kg (Schaf), read-out: Sicherheits-faktor
readout-type: selectivity ratio

Looking for the measured selectivity ratio of CC(=O)Oc1c(I)cc(I)cc1C(=O)Nc1ccc(Cl)cc1 [Clioxanide, 2-Acetoxy-4-chlor-3,5-dijod-benzanilid] , can you help? 15

---

- assay-summary: in vivo
- condition-notes: sheep, quotient of Dosis tolerata maxima and applied dose, applied dose 3,0 mg/kg (Schaf), read-out: Sicherheits-faktor
readout-type: selectivity ratio
Form rule: numeric answer, no unit written next to it.

Looking for the measured selectivity ratio of O=[N+]([O-])c1cc(Cl)cc(-c2cc(Cl)cc([N+](=O)[O-])c2O)c1O [Niclofolan] , can you help? 4.4
